- protocol details: Single-dose intravenous HCQ pharmacokinetics in rats
- Format: in vivo
- measurement setup: both sexes, rat; rats, intravenous, 5 mg/kg/day, single day, whole blood; read-out: AUC0-23
assay metric: AUC(0-t) (ng·h/mL)
Report the figure in ng·h/mL without appending any unit label.

Which AUC(0-t) reading was recorded for the molecule CCN(CCO)CCCC(C)Nc1ccnc2cc(Cl)ccc12 (stereo not shown) [HCQ, hydroxychloroquine] ?
4050

----------
- protocol details: Single-dose intravenous HCQ pharmacokinetics in dogs
- Format: in vivo, Beagle dogs
- measurement setup: both sexes, beagle, dog, 5 mg/kg/day, single day, whole blood, read-out: AUC0-23
- Description: Two Beagle dogs per dose group (one M: one F) received hydroxychloroquine sulfate, USP as an intravenous bolus infusion over 30 minutes. Following the single injection, blood samples were drawn at one, two, three, five, six, seven, eight, 12, 18, 24, 36, 120, 192, 264, 360, 528, 696, 864 and 1,032 hours.
assay metric: AUC(0-t) (ng·h/mL)
Number in ng·h/mL, nothing else.

Please report the recorded AUC(0-t) for CCN(CCO)CCCC(C)Nc1ccnc2cc(Cl)ccc12 (stereo not shown) [HCQ, hydroxychloroquine] .
8160

Value source: patent US20040220220A1
